Values from patent US20240197694A1

# tgt: DCAF1 (1058-1396) (Homo sapiens, UniProt Q9Y4B6)
# Construct: a fragment of a DCAF1 protein that includes amino acid residues A1058 to E1396; His6 (N, cleaved yes); made in house; host or cells: Sf9 insect cells (Bac-to-Bac baculovirus, pFastBacHT vector)
# Sequence (Q9Y4B6 1058-1396): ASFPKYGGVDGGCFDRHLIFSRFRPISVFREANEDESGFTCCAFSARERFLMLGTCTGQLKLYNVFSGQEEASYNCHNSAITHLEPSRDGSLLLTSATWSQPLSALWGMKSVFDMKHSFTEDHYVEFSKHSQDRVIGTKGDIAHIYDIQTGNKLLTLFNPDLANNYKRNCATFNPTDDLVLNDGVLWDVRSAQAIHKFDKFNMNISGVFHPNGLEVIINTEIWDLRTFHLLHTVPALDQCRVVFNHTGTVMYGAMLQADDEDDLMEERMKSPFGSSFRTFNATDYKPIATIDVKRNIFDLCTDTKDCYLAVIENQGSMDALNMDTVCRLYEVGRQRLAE
# assay-summary: Surface plasmon resonance (SPR) binding assay, compound binding to DCAF1
# measurement-context: immobilized DCAF1 (1058-1396), steady state affinity model, 25° C.
pKd: −log10 of the molar value.
outcome-measure: pKd

INSERT INTO results (compound, tgt, observed_measurement) VALUES
  ('Cc1ccc2c(c1)C1CN(C)CCC1N2C(=O)CCc1cccs1 (centres unmarked)', 'DCAF1 (1058-1396) (Homo sapiens, UniProt Q9Y4B6)', '< 4.00'),
  ('Cn1cccc1CNCc1cccnc1', 'DCAF1 (1058-1396) (Homo sapiens, UniProt Q9Y4B6)', '< 4.00'),
  ('Cc1ccc2c(c1)C1CN(C)CCC1N2C(=O)c1cc(C#N)oc1C (centres unmarked)', 'DCAF1 (1058-1396) (Homo sapiens, UniProt Q9Y4B6)', '< 4.00');

Req: Request the reported pKd associated with Cc1ccc2c(c1)C1CN(C)CCC1N2S(=O)(=O)c1ccc(C(=O)C(C)C)cc1 (centres unmarked)
Resp: < 4.00

Req: Dear colleague, I am looking for the recorded pKd of the following compound: NCCCCCCn1cccc1C(=O)NCc1ccncc1
Resp: 4.15 to 4.40

Req: Quick check: pKd of Cn1cccc1CNCc1ccncc1 ?
Resp: 4.15 to 4.40

Req: What value of pKd has been reported for the following compound? CC(C)(C)c1ccc2[nH]c3c(c2c1)CN(CCc1cnn[nH]1)CC3
Resp: 4.15 to 4.40

Req: Requested field: pKd. Item: O=C(O)CCN1CCc2[nH]c3ccc(Br)cc3c2C1
Resp: < 4.00

Req: Fill in the blank: the reported pKd of COc1nn(C)cc1C(=O)N1c2ccc(C)cc2C2CN(C)CCC21 (centres unmarked) is ____.
Resp: < 4.00

----------
List of Kd tested on DCAF1 (1058-1396) (Homo sapiens).

Some compounds with recorded Kd:
INSERT INTO measurements (compound, observed_measurement) VALUES
  ('Cc1ccc2c(c1)[C@@H]1CN(C)CC[C@H]1N2C(=O)/C=C/c1nccs1 (racemic)', '> 100 µM'),
  ('Cc1cccc2c1[C@@H]1CN(C)CC[C@H]1N2C (racemic)', '> 100 µM'),
  ('CN1Cc2ccccc2CC1CNC(=O)Nc1ccc2c(c1)nnn2C (centres unmarked)', '> 100 µM'),
  ('Cc1ccc(Br)c2[nH]c3c(c12)CN(C)CC3', '> 100 µM'),
  ('Clc1ccc2[nH]c3c(c2c1)CN(CCc1cnn[nH]1)CC3', '40 to 70 µM'),
  ('CCn1nc(C2CC2)cc1C(=O)N1c2ccc(C)cc2C2CN(C)CCC21 (centres unmarked)', '> 100 µM'),
  ('NCCCCCCn1c2c(c3cc(F)ccc31)CN(CCc1cnn[nH]1)CC2', '40 to 70 µM'),
  ('c1ccc2c3c([nH]c2c1)CCN(CCc1ccncc1)C3', '40 to 70 µM'),
  ('OCCOc1ccc(CNCc2cnc[nH]2)cc1', '> 100 µM'),
  ('Cn1cccc1CNCc1ccccn1', '> 100 µM');

Req: DCAF1 (1058-1396) (Homo sapiens) / Kd / Cc1ccc2c(c1)C1CN(C)CCC1N2C(=O)c1nc(Cl)ccc1Cl (centres unmarked) : value?
Resp: > 100 µM

Req: Fill in the recorded Kd for this compound, with DCAF1 (1058-1396) (Homo sapiens) as test system: Cc1ccc2c(c1)C1CN(C)CCC1N2C(=O)/C=C/c1ccccc1 (centres unmarked)
Resp: > 100 µM

Req: What Kd appears in the records for this compound with DCAF1 (1058-1396) (Homo sapiens)? Cc1ccc2c(c1)C1CN(C)CCC1N2C(=O)/C=C/c1cccc(C(F)(F)F)c1 (centres unmarked)
Resp: > 100 µM

Req: // lookup Kd | system=DCAF1 (1058-1396) (Homo sapiens) | key= Cc1cccc2c1[C@H]1CN(C)CC[C@H]1N2C (racemic)
Resp: > 100 µM
